Target: Progesterone receptor (Homo sapiens)
Sequence (P06401 whole entry): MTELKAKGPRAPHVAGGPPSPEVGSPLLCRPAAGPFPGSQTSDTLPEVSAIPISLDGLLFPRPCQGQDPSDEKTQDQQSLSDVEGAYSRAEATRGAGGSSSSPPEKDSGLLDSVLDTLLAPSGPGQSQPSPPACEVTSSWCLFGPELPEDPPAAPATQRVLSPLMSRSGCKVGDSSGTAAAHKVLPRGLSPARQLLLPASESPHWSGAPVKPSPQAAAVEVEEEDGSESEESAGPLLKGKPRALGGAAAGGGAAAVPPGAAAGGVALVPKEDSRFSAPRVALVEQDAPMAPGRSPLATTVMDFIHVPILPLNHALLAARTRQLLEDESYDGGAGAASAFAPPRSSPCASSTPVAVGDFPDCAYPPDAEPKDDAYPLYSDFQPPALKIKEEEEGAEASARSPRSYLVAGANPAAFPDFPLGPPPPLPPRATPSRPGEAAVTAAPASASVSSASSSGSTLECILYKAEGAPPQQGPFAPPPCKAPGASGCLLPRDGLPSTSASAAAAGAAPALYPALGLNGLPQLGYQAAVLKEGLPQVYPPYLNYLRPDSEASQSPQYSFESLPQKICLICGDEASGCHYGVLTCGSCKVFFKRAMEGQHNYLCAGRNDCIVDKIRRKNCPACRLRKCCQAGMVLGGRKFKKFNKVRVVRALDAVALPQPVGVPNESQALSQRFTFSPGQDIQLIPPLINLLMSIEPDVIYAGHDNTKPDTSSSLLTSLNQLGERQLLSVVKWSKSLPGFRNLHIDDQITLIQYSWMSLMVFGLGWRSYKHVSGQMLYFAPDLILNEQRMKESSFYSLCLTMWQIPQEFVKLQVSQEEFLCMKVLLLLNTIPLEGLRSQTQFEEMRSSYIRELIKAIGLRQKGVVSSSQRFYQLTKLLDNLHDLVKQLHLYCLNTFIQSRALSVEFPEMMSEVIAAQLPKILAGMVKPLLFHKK
Assay: Agonist activity at GAL4 DNA-binding domain fused PR (unknown origin) ligand binding domain expressed in UAS-bla HEK 293T cells assessed as beta-lactamase transcriptional activation by FRET-based GeneBLAzer assay
result.type: pIC50
In textbook form, pIC50 equals minus log to base ten of the concentration in mol/L.

Query: Give the reported pIC50 for CCC(=O)[C@@]1(C)CC[C@H]2[C@@H]3CCC4=CC(=O)CCC4=C3CC[C@@]21C [PROMEGESTONE] (system: Progesterone receptor (Homo sapiens)).
Result: 9.63
